Biological target: T1, human CXCR2 (human, UniProt P25025 1-360)
T1 construct: Expressed on Flp-In CHO cells (FACS, Fab-ZAP, ADCC, CDC) or on bought PathHunter CHO cells (beta-arrestin assay); the construct in the PathHunter cells is not described; also called chemokine receptor CXCR2; CXCR2 CHO Flp-In cells
T1 sequence: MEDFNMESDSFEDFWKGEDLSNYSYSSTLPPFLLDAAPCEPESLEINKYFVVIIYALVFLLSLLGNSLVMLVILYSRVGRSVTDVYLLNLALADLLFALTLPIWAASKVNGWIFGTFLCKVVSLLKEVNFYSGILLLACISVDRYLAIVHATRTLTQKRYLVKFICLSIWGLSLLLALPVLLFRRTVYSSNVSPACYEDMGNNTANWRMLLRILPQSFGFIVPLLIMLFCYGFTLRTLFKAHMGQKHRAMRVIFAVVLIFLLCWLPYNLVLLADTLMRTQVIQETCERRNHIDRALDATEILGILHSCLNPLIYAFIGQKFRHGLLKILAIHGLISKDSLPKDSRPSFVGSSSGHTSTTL
Test: FACS, CXCR2 Flp-In CHO cells, IgG1
Reported EC50 values for a set of binders

>  <binder>
CX2-Mab #3 (IgG1 format) (antibody, V domains shown, Fab converted into IgG1 format, expressed in a human cell line, protein A purified; also called parental) VH: EVQLLESGGGLVQPGGSLRLSCAASGFTFSSYWMSWVRQAPGKGLEWVSVISYSGSETFYADSVKGRFTISRDNSKNTLYLQMNSLRAEDTAVYYCARGRVGYAFDYWGQGTLVTVSS VL: DIVLTQPPSVSGAPGQRVTISCSGSSSNIGVNYVNWYQQLPGTAPKLLIYSNNQRPSGVPDRFSGSKSGTSASLAITGLQAEDEADYYCQSRASGFYSVVFGGGTKLTVLG

>  <value units>
nM

>  <value operator>
=

>  <EC50>
0.2

$$$$
>  <binder>
CX2-Mab #2 (IgG1 format) (antibody, V domains shown, Fab converted into IgG1 format, expressed in a human cell line, protein A purified) VH: QVQLVQSGAEVKKPGASVKVSCKASGYTFSRYAMHWVRQAPGQGLEWMGVINPYNGNTRYAQKFQGRVTMTRDTSISTAYMELSRLRSEDTAVYYCARGSHIQAGAFDYWGQGTLVTVSS VL: DIQMTQSPSSLSASVGDRVTITCRASQGINNRLNWYQQKPGKAPKLLIYDGSSLQSGVPSRFSGSGSGTDFTLTISSLQPEDFATYYCQQYIHFPVTFGQGTKVEIKR

>  <value units>
nM

>  <value operator>
>

>  <EC50>
667

$$$$
>  <binder>
CX2-Mab #5 (IgG1 format) (antibody, V domains shown, Fab converted into IgG1 format, expressed in a human cell line, protein A purified) VH: EVQLLESGGGLVQPGGSLRLSCAASGFTFNSNAMSWVRQAPGKGLEWVSFISYSGSHTYYADSVKGRFTISRDNSKNTLYLQMNSLRAEDTAVYYCARYTRFLSRPAFDPWGQGTLVTVSS VL: DIVLTQPPSVSGAPGQRVTISCTGSSSNIGAGYDVHWYQQLPGTAPKLLIYYNSKRPSGVPDRFSGSKSGTSASLAITGLQAEDEADYYCGAYDRKMNSYVFGGGTKLTVLG

>  <value units>
nM

>  <value operator>
=

>  <EC50>
17.7

$$$$
>  <binder>
CX2-Mab #1 (IgG1 format) (antibody, V domains shown, Fab converted into IgG1 format, expressed in a human cell line, protein A purified; also called parental) VH: QVQLVQSGAEVKKPGSSVKVSCKASGGTFSSYAISWVRQAPGQGLEWMGGIIPIVGEAKYAQKFQGRVTITADESTSTAYMELSSLRSEDTAVYYCARDSSGYDGYYAFAYWGQGTQVTVSS VL: DIVLTQPPSVSGAPGQRGTISCSGSSSNIGSSSVNWYQQLPGTAPKLLIYRNNQRPSGVPDRFSGSKSGTSASLAITGLQAEDEADYYCGATDFSANQVVFGGGTKLTVLG

>  <value units>
nM

>  <value operator>
=

>  <EC50>
0.4

$$$$
>  <binder>
CX2-Mab #4 (IgG1 format) (antibody, V domains shown, Fab converted into IgG1 format, expressed in a human cell line, protein A purified; also called parental) VH: EVQLLESGGGLVQPGGSLRLSCAASGFTFSSNGMSWVRQAPGKGLEWVSAISSSGSKTYYADSVKGRFTISRDNSKNTLYLQMNSLRAEDTAVYYCARGYGFDVWGQGTLVTVSS VL: DIVLTQPPSVSGAPGQRVTISCSGSSSNIGVNIVNWYQQLPGTAPKLLIYSTSNRPSGVPDRFSGSKSGTSASLAITGLQAEDEADYYCATRDGISKSVVFGGGTKLTVLG

>  <value units>
nM

>  <value operator>
=

>  <EC50>
0.1

$$$$
>  <binder>
CX2-Mab #6 (IgG1 format) (antibody, V domains shown, Fab converted into IgG1 format, expressed in a human cell line, protein A purified) VH: EVQLLESGGGLVQPGGSLRLSCAASGFTFSSYTMSWVRQAPGKGLEWVSAIHSSGSSTYYADSVKGRFTISRDNSKNTLYLQMNSLRAEDTAVYYCARVPAYYGFDHWGQGTLVTVSS VL: DIELTQPPSVSVSPGQTASITCSGDSLGAFYVHWYQQKPGQAPVLVIYRTNNRPSGIPERFSGSNSGNTATLTISGTQAEDEADYYCASYASRNRVFGGGTKLTVLG

>  <value units>
nM

>  <value operator>
=

>  <EC50>
0.1

$$$$

The measurements presented in this section are drawn from patent US20160060347A1.
